The reported numbers originate from patent US9657002B2.

Kindly supply the reported pKi values for the records listed here.
# measurementTarget: human vasopressin V1b receptor (Homo sapiens, UniProt P47901)
# Sequence (P47901 whole entry): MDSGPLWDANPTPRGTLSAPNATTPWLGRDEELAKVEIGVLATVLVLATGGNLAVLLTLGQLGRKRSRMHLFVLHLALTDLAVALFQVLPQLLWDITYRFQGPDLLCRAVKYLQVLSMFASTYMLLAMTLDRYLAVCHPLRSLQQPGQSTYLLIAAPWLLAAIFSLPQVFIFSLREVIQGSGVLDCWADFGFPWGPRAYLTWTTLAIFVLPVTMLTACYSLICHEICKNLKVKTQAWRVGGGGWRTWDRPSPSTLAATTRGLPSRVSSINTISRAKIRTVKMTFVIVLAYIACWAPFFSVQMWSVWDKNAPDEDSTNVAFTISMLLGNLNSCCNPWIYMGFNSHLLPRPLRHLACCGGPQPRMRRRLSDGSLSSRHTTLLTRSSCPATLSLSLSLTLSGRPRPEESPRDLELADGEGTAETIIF
# assayRemarks: biochemical
pKi: −log10 of the molar value.

Inquiry: Report measured pKi; entry is CCOc1ncccc1[C@]1(NC(=O)N2CCC(C3CCN(C4COC4)CC3)CC2)C(=O)N(S(=O)(=O)c2ccc(OC)cc2OC)c2ccc(C#N)cc21 [Example 11]
Reply text: > 9.00

Inquiry: Report measured pKi; entry is COc1ccc(S(=O)(=O)N2C(=O)[C@@](NC(=O)N3CCC(C4CCN(C5COC5)CC4)CC3)(c3cc(OC)ccc3OC)c3cc(C#N)ccc32)c(OC)c1 [Example 55]
Reply text: > 9.00

Inquiry: Report measured pKi; entry is CCOc1ncccc1[C@]1(NC(=O)N2CCN(C3CCN(C4COC4)CC3)CC2)C(=O)N(S(=O)(=O)c2ccc(F)cc2OC)c2ccc(C#N)cc21 [Example 26]
Reply text: 8.00 to 9.00

Inquiry: Report measured pKi; entry is CCOc1ncccc1[C@]1(NC(=O)N2CCN(C3CCN(CC4COC4)CC3)CC2)C(=O)N(S(=O)(=O)c2ccc(OC)cc2OC)c2ccc(C#N)cc21 [Example 19]
Reply text: 7.00 to 8.00

Inquiry: Report measured pKi; entry is CCOc1ccc(OC)cc1[C@]1(NC(=O)N2CCN(C3CCN(C4COC4)CC3)CC2)C(=O)N(S(=O)(=O)c2ccc(OC)cn2)c2ccc(C#N)cc21 [Example 32]
Reply text: 7.00 to 8.00

Inquiry: Report measured pKi; entry is COc1cc(C)ccc1S(=O)(=O)N1C(=O)[C@@](NC(=O)N2CCN(C3CCN(C4COC4)CC3)CC2)(c2cccnc2OC)c2cc(C#N)ccc21 [Example 46]
Reply text: 7.00 to 8.00

Inquiry: Report measured pKi; entry is COc1ncccc1[C@]1(NC(=O)N2CCN(C3CCN(C4COC4)CC3)CC2)C(=O)N(S(=O)(=O)c2ccc(C#N)cc2)c2ccc(C#N)cc21 [Example 43]
Reply text: 7.00 to 8.00

Inquiry: Report measured pKi; entry is COc1ccc(S(=O)(=O)N2C(=O)[C@@](NC(=O)N3CCC(C4CCN(C5COC5)CC4)CC3)(c3cccnc3OC)c3cc(C#N)ccc32)nc1 [Example 39]
Reply text: > 9.00

Inquiry: Report measured pKi; entry is COc1ccc(S(=O)(=O)N2C(=O)[C@@](NC(=O)N3CCN(C4CCN(C5COC5)CC4)CC3)(c3cccnc3OC)c3cc(C#N)ccc32)c(OC)c1 [Example 21]
Reply text: 7.00 to 8.00

Inquiry: Report measured pKi; entry is COc1cc(F)ccc1S(=O)(=O)N1C(=O)[C@@](NC(=O)N2CCN(C3CCN(C4COC4)CC3)CC2)(c2cccnc2OC)c2cc(C#N)ccc21 [Example 30]
Reply text: 8.00 to 9.00

Inquiry: Report measured pKi; entry is CCOc1ccc(OC)cc1[C@]1(NC(=O)N2CCN(C3CCN(C4COC4)CC3)CC2)C(=O)N(S(=O)(=O)c2ccc(OC)cc2OC)c2ccc(C#N)cc21 [Example 33]
Reply text: 8.00 to 9.00

Inquiry: Report measured pKi; entry is COc1ccc(S(=O)(=O)N2C(=O)[C@@](NC(=O)N3CCN(C4CCN(C5COC5)CC4)CC3)(c3cccnc3OC)c3cc(C#N)ccc32)nc1 [Example 29]
Reply text: 8.00 to 9.00

Inquiry: Report measured pKi; entry is COc1ncccc1[C@]1(NC(=O)N2CCC(C3CCN(C4COC4)CC3)CC2)C(=O)N(S(=O)(=O)c2ccc(F)cc2)c2ccc(C#N)cc21 [Example 40]
Reply text: 8.00 to 9.00

Inquiry: Report measured pKi; entry is COc1ccc(S(=O)(=O)N2C(=O)[C@@](NC(=O)N3CCN(C4CCN(C5COC5)CC4)CC3)(c3cccnc3OC(C)C)c3cc(C#N)ccc32)c(OC)c1 [Example 44]
Reply text: 8.00 to 9.00

Inquiry: Report measured pKi; entry is COc1ccc(S(=O)(=O)N2C(=O)[C@@](NC(=O)N3CCC(C4CCN(C5COC5)CC4)CC3)(c3cccnc3OC)c3cc(C#N)ccc32)c(OC)c1 [Example 27]
Reply text: > 9.00

Inquiry: Report measured pKi; entry is COc1ncccc1[C@]1(NC(=O)N2CCN(C3CCN(C4COC4)CC3)CC2)C(=O)N(S(=O)(=O)c2ccc(C#N)cc2F)c2ccc(C#N)cc21 [Example 47]
Reply text: 7.00 to 8.00

Inquiry: Report measured pKi; entry is CCOc1ccc(OC)cc1[C@]1(NC(=O)N2CCN(C3CCN(C4COC4)CC3)CC2)C(=O)N(S(=O)(=O)c2ccc(F)cc2OC)c2ccc(C#N)cc21 [Example 35]
Reply text: 8.00 to 9.00

Inquiry: Report measured pKi; entry is COc1ccc(S(=O)(=O)N2C(=O)[C@@](NC(=O)N3CCN(C4CCN(C5COC5)CC4)CC3)(c3cccnc3OC)c3cc(C#N)ccc32)cc1 [Example 34]
Reply text: 7.00 to 8.00

Inquiry: Report measured pKi; entry is COc1ccccc1S(=O)(=O)N1C(=O)[C@@](NC(=O)N2CCC(C3CCN(C4COC4)CC3)CC2)(c2cccnc2OC)c2cc(C#N)ccc21 [Example 49]
Reply text: 8.00 to 9.00

Inquiry: Report measured pKi; entry is CCOc1ncccc1[C@]1(NC(=O)N2CCN(C3CCN(C4COC4)CC3)CC2)C(=O)N(S(=O)(=O)c2ccc(F)cc2)c2ccc(C#N)cc21 [Example 28]
Reply text: 7.00 to 8.00

Inquiry: Report measured pKi; entry is COc1ncccc1[C@]1(NC(=O)N2CCC(C3CCN(C4COC4)CC3)CC2)C(=O)N(S(=O)(=O)c2ccccc2)c2ccc(C#N)cc21 [Example 50]
Reply text: 7.00 to 8.00

Inquiry: Report measured pKi; entry is COc1ccc(S(=O)(=O)N2C(=O)[C@@](NC(=O)N3CCC(C4CCN(C5COC5)CC4)CC3)(c3cccnc3OC)c3cc(C#N)ccc32)cc1 [Example 36]
Reply text: 8.00 to 9.00

Inquiry: Report measured pKi; entry is COc1cc(F)ccc1S(=O)(=O)N1C(=O)[C@@](NC(=O)N2CCC(C3CCN(C4COC4)CC3)CC2)(c2cccnc2OC)c2cc(C#N)ccc21 [Example 37]
Reply text: > 9.00
